Molecular target: T1, human Nectin-4 extracellular antigen hNectin-4-His (human, UniProt Q96NY8 32-349)
T1 construct: C-terminal 8xHis tag included
T1 sequence: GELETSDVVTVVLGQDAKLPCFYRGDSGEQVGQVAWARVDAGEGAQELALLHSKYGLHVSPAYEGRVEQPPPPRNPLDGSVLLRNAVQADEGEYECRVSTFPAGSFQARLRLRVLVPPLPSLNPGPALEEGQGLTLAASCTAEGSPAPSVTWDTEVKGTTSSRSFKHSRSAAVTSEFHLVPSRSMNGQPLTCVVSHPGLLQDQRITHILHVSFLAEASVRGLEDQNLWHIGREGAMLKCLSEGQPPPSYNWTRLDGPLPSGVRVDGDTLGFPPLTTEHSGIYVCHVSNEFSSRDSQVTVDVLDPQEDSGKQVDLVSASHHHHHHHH
Assay: ELISA, phage scFv supernatant 1:50
metric: OD value (OD)
Form entry: value (OD) — number only.

See these solved cases before continuing.
Inquiry: So what does the record say about OD value for 1F3-1H11 scFv (scFv, V domains shown, phage clone supernatant) VH: EVQLVESGGGLVQPGGSLRLSCAASGFNFTDYGMSWVRQAPGKGLEWVSRISQWGDTSNYADSVKGRFTISRDNSKNTLYLQMNSLRAEDTAVYYCARAELLAFDVYTASDYWGQGTLVTVSS VL: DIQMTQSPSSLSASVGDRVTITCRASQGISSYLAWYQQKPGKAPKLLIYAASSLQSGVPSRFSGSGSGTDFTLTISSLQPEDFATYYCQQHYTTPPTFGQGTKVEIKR ?
Reply text: 1.65

Inquiry: What do we get for 1G8-2C7 scFv (scFv, V domains shown, phage clone supernatant) VH: EVQLVESGGGLVQPGGSLRLSCAASGYSFTNFAMSWVRQAPGKGLEWVSRISQDGGNKNYADSVKGRFTISRDNSKNTLYLQMNSLRAEDTAVYYCARQTEDRSYGYDLDYWGQGTLVTVSS VL: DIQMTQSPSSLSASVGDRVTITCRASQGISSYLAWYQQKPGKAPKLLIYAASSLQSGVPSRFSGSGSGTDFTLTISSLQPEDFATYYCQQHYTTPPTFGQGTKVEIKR ?
Reply text: 1.58

Now turn to the next binder.
Inquiry: So what does the record say about OD value for 10F4-1H1 scFv (scFv, V domains shown, phage clone supernatant) VH: EVQLVESGGGLVQPGGSLRLSCAASGYSFGNFDMSWVRQAPGKGLEWVSGIKQYKGYTSYADSVKGRFTISRDNSKNTLYLQMNSLRAEDTAVYYCAREYSDVVDYVSVRTPLDYWGQGTLVTVSS VL: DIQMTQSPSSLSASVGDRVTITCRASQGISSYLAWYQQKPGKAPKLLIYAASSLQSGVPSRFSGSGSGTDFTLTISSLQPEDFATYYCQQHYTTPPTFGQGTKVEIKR ?
Reply text: 1.61
